# rank order of inhibition annotations
biological target: hSPP (Homo sapiens, UniProt Q8TCT9); construct: expressed in transfected cells; host or cells: HEK 293T; experiment: FBA/hSPP co-transfected HEK 293T cell cleavage assay (Aβ ELISA, Western blot, IP/MS); assay type: cell-based; conditions: number in parenthesis in Table 3
Sequence (Q8TCT9 whole entry): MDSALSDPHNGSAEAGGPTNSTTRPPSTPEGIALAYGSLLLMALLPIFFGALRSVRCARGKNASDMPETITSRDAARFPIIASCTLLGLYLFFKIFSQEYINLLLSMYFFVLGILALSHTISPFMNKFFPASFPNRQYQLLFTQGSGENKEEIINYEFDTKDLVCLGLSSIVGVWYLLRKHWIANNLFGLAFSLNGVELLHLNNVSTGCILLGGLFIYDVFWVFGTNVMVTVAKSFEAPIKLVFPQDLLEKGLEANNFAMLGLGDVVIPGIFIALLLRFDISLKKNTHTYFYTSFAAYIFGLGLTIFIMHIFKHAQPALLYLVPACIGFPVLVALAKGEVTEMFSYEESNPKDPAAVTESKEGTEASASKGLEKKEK
Numbered stars: 1 amine (or outer) side, 2 acyl side, 3 side chain; on linkers, the order of the positions; unused ones are H or OH. Square brackets hold non-standard residues; d marks the D form. Peptide text beside a SMILES is read from it. * marks the point of attachment. X1 = CC(N[*:1])C(=O)C(F)(F)C(=O)[*:2]; Boc = CC(C)(C)OC(=O)*
reported_property: rank order of inhibition

{"molecule": "C[C@H](NC(=O)[C@@H](O)c1cc(F)cc(F)c1)C(=O)N[C@@H]1C(=O)N(C)c2ccccc2-c2ccccc21 [LY-411,575]", "reported_property": "rank order of inhibition", "observed": 1}
{"molecule": "CC(C)C[C@H](NC(=O)[C@H](Cc1ccccc1)C[C@@H](O)[C@H](Cc1ccccc1)NC(=O)OC(C)(C)C)C(=O)N[C@@H](Cc1ccccc1)C(N)=O [L685,458]", "reported_property": "rank order of inhibition", "observed": 2}
{"molecule": "CC[C@H](C)[C@H](NC(=O)[C@@H](NC(=O)OC(C)(C)C)C(C)C)C(=O)NC(C)C(=O)C(F)(F)C(=O)N[C@H](C(=O)N[C@H](C(=O)OC)[C@@H](C)CC)C(C)C (stereo partly shown) [GSI II] (Boc-VI[X1]VI-OMe)", "reported_property": "rank order of inhibition", "observed": 3}
{"molecule": "CC(C)C[C@H](NC(=O)OCc1ccccc1)C(=O)N[C@@H](CC(C)C)C(=O)NCC(=O)CNC(=O)[C@H](CC(C)C)NC(=O)[C@H](CC(C)C)NC(=O)OCc1ccccc1 [(Z-LL)2 ketone]", "reported_property": "rank order of inhibition", "observed": 4}

----------
Molecular target: SPPL2b (Homo sapiens, UniProt Q8TCT7)
Construct: expressed in transfected cells; host or cells: HEK 293T
Sequence (Q8TCT7 26-592): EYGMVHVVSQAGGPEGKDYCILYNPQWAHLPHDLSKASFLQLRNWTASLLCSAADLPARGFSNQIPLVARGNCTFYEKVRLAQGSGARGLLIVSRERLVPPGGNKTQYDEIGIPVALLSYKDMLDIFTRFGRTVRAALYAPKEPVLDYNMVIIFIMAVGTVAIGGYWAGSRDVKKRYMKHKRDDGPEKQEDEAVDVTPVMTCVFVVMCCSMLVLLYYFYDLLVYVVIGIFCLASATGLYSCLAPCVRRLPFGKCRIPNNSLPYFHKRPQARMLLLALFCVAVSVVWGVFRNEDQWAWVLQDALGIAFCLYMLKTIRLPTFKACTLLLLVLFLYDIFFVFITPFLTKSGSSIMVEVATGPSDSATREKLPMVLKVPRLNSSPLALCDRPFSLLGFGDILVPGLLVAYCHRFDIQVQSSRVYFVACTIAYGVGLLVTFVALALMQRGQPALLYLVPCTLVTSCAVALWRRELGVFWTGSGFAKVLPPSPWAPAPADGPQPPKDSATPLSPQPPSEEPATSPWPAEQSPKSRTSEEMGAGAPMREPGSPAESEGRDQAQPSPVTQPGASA
Test: FBA/SPPL2b co-transfected HEK 293T cell cleavage assay (Aβ ELISA, Western blot, IP/MS)
Type: cell-based
Conditions: 25 μM, ELISA
reported_property: inhibition of xAβ1-25/K16A secretion (in words)

{"molecule": "C[C@H](NC(=O)[C@@H](O)c1cc(F)cc(F)c1)C(=O)N[C@@H]1C(=O)N(C)c2ccccc2-c2ccccc21 [LY-411,575]", "target_entity": "SPPL2b (Homo sapiens, UniProt Q8TCT7)", "observed": "largely inhibited"}
{"molecule": "CC(C)C[C@H](NC(=O)[C@H](Cc1ccccc1)C[C@@H](O)[C@H](Cc1ccccc1)NC(=O)OC(C)(C)C)C(=O)N[C@@H](Cc1ccccc1)C(N)=O [L685,458]", "target_entity": "SPPL2b (Homo sapiens, UniProt Q8TCT7)", "observed": "largely inhibited"}
{"molecule": "CC(C)C[C@H](NC(=O)OCc1ccccc1)C(=O)N[C@@H](CC(C)C)C(=O)NCC(=O)CNC(=O)[C@H](CC(C)C)NC(=O)[C@H](CC(C)C)NC(=O)OCc1ccccc1 [(Z-LL)2 ketone]", "target_entity": "SPPL2b (Homo sapiens, UniProt Q8TCT7)", "observed": "largely inhibited"}

----------
target: pSPP (Plasmodium falciparum, UniProt Q8IKQ9); test: FBA/pSPP co-transfected HEK 293T cell cleavage assay (Aβ ELISA, Western blot, IP/MS)
Sequence (Q8IKQ9 entry or part of it): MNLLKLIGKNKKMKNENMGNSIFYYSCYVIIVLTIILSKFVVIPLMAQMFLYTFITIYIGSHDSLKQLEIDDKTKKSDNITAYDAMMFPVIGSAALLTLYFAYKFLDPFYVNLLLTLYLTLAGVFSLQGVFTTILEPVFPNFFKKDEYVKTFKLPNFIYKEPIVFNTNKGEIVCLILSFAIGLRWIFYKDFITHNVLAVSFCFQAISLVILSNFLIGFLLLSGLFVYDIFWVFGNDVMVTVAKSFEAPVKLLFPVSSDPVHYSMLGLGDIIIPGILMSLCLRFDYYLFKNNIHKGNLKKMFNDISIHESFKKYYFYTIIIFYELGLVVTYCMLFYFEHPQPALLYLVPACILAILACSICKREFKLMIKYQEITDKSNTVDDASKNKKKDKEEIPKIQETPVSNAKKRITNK
pIC50: −log10 of the molar value. Numbered stars: 1 amine (or outer) side, 2 acyl side, 3 side chain; on linkers, the order of the positions; unused ones are H or OH. Square brackets hold non-standard residues; d marks the D form. Peptide text beside a SMILES is read from it. * marks the point of attachment. X1 = CC(N[*:1])C(=O)C(F)(F)C(=O)[*:2]; Boc = CC(C)(C)OC(=O)*
reported_property: pIC50

{"compound": "CC[C@H](C)[C@H](NC(=O)[C@@H](NC(=O)OC(C)(C)C)C(C)C)C(=O)NC(C)C(=O)C(F)(F)C(=O)N[C@H](C(=O)N[C@H](C(=O)OC)[C@@H](C)CC)C(C)C (stereo partly shown) [GSI II] (Boc-VI[X1]VI-OMe)", "reported_property": "pIC50", "observed": 6.37}
{"compound": "C[C@H](NC(=O)[C@@H](O)c1cc(F)cc(F)c1)C(=O)N[C@@H]1C(=O)N(C)c2ccccc2-c2ccccc21 [LY-411,575]", "reported_property": "pIC50", "observed": 5.46}
{"compound": "CC(C)C[C@H](NC(=O)[C@H](Cc1ccccc1)C[C@@H](O)[C@H](Cc1ccccc1)NC(=O)OC(C)(C)C)C(=O)N[C@@H](Cc1ccccc1)C(N)=O [L685,458]", "reported_property": "pIC50", "observed": 6.79}
{"compound": "CC(C)C[C@H](NC(=O)OCc1ccccc1)C(=O)N[C@@H](CC(C)C)C(=O)NCC(=O)CNC(=O)[C@H](CC(C)C)NC(=O)[C@H](CC(C)C)NC(=O)OCc1ccccc1 [(Z-LL)2 ketone]", "reported_property": "pIC50", "observed": 6.33}

----------
biological target: SPPL2b (Homo sapiens); construct: expressed in transfected cells; host or cells: HEK 293T; test: FBA/SPPL2b co-transfected HEK 293T cell cleavage assay (Aβ ELISA, Western blot, IP/MS); format: cell-based; conditions: number in parenthesis in Table 3
Numbered stars: 1 amine (or outer) side, 2 acyl side, 3 side chain; on linkers, the order of the positions; unused ones are H or OH. Square brackets hold non-standard residues; d marks the D form. Peptide text beside a SMILES is read from it. * marks the point of attachment. X1 = CC(N[*:1])C(=O)C(F)(F)C(=O)[*:2]; Boc = CC(C)(C)OC(=O)*

{"molecule": "CC[C@H](C)[C@H](NC(=O)[C@@H](NC(=O)OC(C)(C)C)C(C)C)C(=O)NC(C)C(=O)C(F)(F)C(=O)N[C@H](C(=O)N[C@H](C(=O)OC)[C@@H](C)CC)C(C)C (stereo partly shown) [GSI II] (Boc-VI[X1]VI-OMe)", "target_entity": "SPPL2b (Homo sapiens)", "rank order of inhibition": 3}
{"molecule": "C[C@H](NC(=O)[C@@H](O)c1cc(F)cc(F)c1)C(=O)N[C@@H]1C(=O)N(C)c2ccccc2-c2ccccc21 [LY-411,575]", "target_entity": "SPPL2b (Homo sapiens)", "rank order of inhibition": 4}
{"molecule": "CC(C)C[C@H](NC(=O)[C@H](Cc1ccccc1)C[C@@H](O)[C@H](Cc1ccccc1)NC(=O)OC(C)(C)C)C(=O)N[C@@H](Cc1ccccc1)C(N)=O [L685,458]", "target_entity": "SPPL2b (Homo sapiens)", "rank order of inhibition": 1}
{"molecule": "CC(C)C[C@H](NC(=O)OCc1ccccc1)C(=O)N[C@@H](CC(C)C)C(=O)NCC(=O)CNC(=O)[C@H](CC(C)C)NC(=O)[C@H](CC(C)C)NC(=O)OCc1ccccc1 [(Z-LL)2 ketone]", "target_entity": "SPPL2b (Homo sapiens)", "rank order of inhibition": 2}

----------
Biological target: SPPL2a (Homo sapiens, UniProt Q8TCT8)
Construct: expressed in transfected cells; host or cells: HEK 293T
Sequence (Q8TCT8 26-520): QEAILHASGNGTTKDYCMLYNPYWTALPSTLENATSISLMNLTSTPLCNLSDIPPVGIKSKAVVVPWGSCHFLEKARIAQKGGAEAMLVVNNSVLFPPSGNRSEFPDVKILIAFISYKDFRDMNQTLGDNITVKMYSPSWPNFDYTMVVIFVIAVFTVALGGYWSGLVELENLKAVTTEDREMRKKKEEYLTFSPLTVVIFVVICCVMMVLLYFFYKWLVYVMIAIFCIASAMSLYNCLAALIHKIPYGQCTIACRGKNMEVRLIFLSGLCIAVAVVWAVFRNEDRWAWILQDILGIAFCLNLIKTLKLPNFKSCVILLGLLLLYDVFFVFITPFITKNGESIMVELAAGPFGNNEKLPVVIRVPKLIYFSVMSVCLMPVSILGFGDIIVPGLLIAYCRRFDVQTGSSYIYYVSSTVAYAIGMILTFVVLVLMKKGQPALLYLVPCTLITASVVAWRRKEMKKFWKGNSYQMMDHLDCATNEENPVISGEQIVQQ
Test: FBA/SPPL2a co-transfected HEK 293T cell cleavage assay (Aβ ELISA, Western blot)
Assay type: cell-based
Conditions: 25 μM, ELISA
Excerpt: Expression constructs in pcDNA6 for COOH-terminal FLAG (DYKDDDDK) and strep (WSHPQFEK) tagged SPPL2a, SPPL2b, hSPP and pSPP were generated as previously described. Untagged versions of all enzymes were also made and ligated into the pAG3 vector. Substrates (Fig 1) were designed as follows: FLAG-BRI2_1-81- Aβ1-25/K16A (FBA). The K16A mutation was incorporated to prevent potential α-secretase cleavage that would preclude ELISA based detection of the released COOH-terminal fragment. […]
reported_property: inhibition of xAβ1-25/K16A secretion (in words)

{"compound": "CC(C)C[C@H](NC(=O)[C@H](Cc1ccccc1)C[C@@H](O)[C@H](Cc1ccccc1)NC(=O)OC(C)(C)C)C(=O)N[C@@H](Cc1ccccc1)C(N)=O [L685,458]", "observed": "largely inhibited"}
{"compound": "CC(C)C[C@H](NC(=O)OCc1ccccc1)C(=O)N[C@@H](CC(C)C)C(=O)NCC(=O)CNC(=O)[C@H](CC(C)C)NC(=O)[C@H](CC(C)C)NC(=O)OCc1ccccc1 [(Z-LL)2 ketone]", "observed": "largely inhibited"}
{"compound": "C[C@H](NC(=O)[C@@H](O)c1cc(F)cc(F)c1)C(=O)N[C@@H]1C(=O)N(C)c2ccccc2-c2ccccc21 [LY-411,575]", "observed": "largely inhibited"}

Source: paper PMC4457840
